System: Rattus norvegicus
TEST_SUMMARY: Ulcerogenic effect in fasted Wistar albino rat at 50 mg/kg, po measured 2 hrs post last dose
Assay type: toxicity, organism-based
Parameters: dose 50 mg/kg, route oral
ASSAY_SETUP: in vivo
Quick reference: UI of the listed items.
METRIC: UI

- SMILES_REPRESENTATION: "Cc1ccc(-c2cc(C(F)(F)F)nn2-c2ccc(S(N)(=O)=O)cc2)cc1"
  TARGET_DESC: "Rattus norvegicus"
  DATA_VALUE: 16.12
- SMILES_REPRESENTATION: "COc1c(-c2cc(-c3cccnc3)nn2-c2ccc(S(N)(=O)=O)cc2)c(O)cc2occc12"
  TARGET_DESC: "Rattus norvegicus"
  DATA_VALUE: 13.82
- SMILES_REPRESENTATION: "COc1cc2occc2c(OC)c1-c1cc(-c2ccc(F)cc2)n(-c2ccc(S(N)(=O)=O)cc2)n1"
  TARGET_DESC: "Rattus norvegicus"
  DATA_VALUE: 11.75
- SMILES_REPRESENTATION: "COc1c(-c2cc(C(F)(F)F)nn2-c2ccc(S(N)(=O)=O)cc2)c(O)c(OC)c2occc12"
  TARGET_DESC: "Rattus norvegicus"
  DATA_VALUE: 11.56
- SMILES_REPRESENTATION: "COc1c(-c2cc(-c3cccnc3)nn2-c2ccc(S(N)(=O)=O)cc2)c(O)c(OC)c2occc12"
  TARGET_DESC: "Rattus norvegicus"
  DATA_VALUE: 10.5
- SMILES_REPRESENTATION: "COc1cc2occc2c(OC)c1-c1cc(-c2ccc(C(F)(F)F)cc2)n(-c2ccc(S(N)(=O)=O)cc2)n1"
  TARGET_DESC: "Rattus norvegicus"
  DATA_VALUE: 10.5

====

TEST_SUMMARY: Selectivity index, ratio of IC50 for ovine COX1 to IC50 for human recombinant COX2
Quick reference: Ratio IC50 of the listed items.

- SMILES_REPRESENTATION: "COc1cc2occc2c(OC)c1-c1cc(-c2ccc(C(F)(F)F)cc2)n(-c2ccc(S(N)(=O)=O)cc2)n1"
  Ratio IC50: "> 147"
- SMILES_REPRESENTATION: "COc1c(-c2cc(-c3cccnc3)nn2-c2ccc(S(N)(=O)=O)cc2)c(O)cc2occc12"
  Ratio IC50: "> 125"
- SMILES_REPRESENTATION: "COc1cc2occc2c(OC)c1-c1cc(-c2ccc(Cl)cc2)n(-c2ccc(S(N)(=O)=O)cc2)n1"
  Ratio IC50: "> 1.93"
- SMILES_REPRESENTATION: "COc1cc2occc2c(OC)c1-c1cc(-c2ccccc2)n(-c2ccc(S(N)(=O)=O)cc2)n1"
  Ratio IC50: "> 1.43"
- SMILES_REPRESENTATION: "COc1cc2occc2c(OC)c1-c1cc(-c2ccc(F)cc2)n(-c2ccc(S(N)(=O)=O)cc2)n1"
  Ratio IC50: "> 109"
- SMILES_REPRESENTATION: "COc1c(-c2cc(C)nn2-c2ccc(S(N)(=O)=O)cc2)c(O)cc2occc12"
  Ratio IC50: "> 6.67"
- SMILES_REPRESENTATION: "COc1c(-c2cc(C(F)(F)F)nn2-c2ccc(S(N)(=O)=O)cc2)c(O)c(OC)c2occc12"
  Ratio IC50: "> 96.2"
- SMILES_REPRESENTATION: "COc1c(-c2cc(-c3cccnc3)nn2-c2ccc(S(N)(=O)=O)cc2)c(O)c(OC)c2occc12"
  Ratio IC50: "> 139"
- SMILES_REPRESENTATION: "COc1c(-c2cc(C(F)(F)F)nn2-c2ccc(S(N)(=O)=O)cc2)c(O)cc2occc12"
  Ratio IC50: "> 7.14"
